B1: TPR 5TU (parent)
chain: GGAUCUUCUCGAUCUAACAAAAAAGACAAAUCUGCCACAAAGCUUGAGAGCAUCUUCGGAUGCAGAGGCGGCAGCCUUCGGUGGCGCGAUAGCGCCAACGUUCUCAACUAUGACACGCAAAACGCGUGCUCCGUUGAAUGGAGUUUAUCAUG

Variants of: B1
Assay: polymerase ribozyme fitness, log enrichment relative to wild type (log ratio); higher = more active; in vitro selection for triplet polymerase activity
Fewer inactive variants are shown than the library holds.

{"columns": ["mutation_descriptor", "readout_relation", "polymerase ribozyme fitness (log ratio)"],
 "data": [
  ["A3U C93U", "=", -1.81],
  ["U78G C79U G94C A115C G143A", "≤", -4.2],
  ["C57A U78C C95G C99G", "=", -3.07],
  ["C103G C123G G136U", "=", -2.77],
  ["A19C U53G C85U G92A C103A G141C", "≤", -4.2],
  ["A19U U55A C63A A142U U148C", "≤", -4.2],
  ["C32G G59C U61A U82A G84U U134G G140C", "≤", -4.2],
  ["A19U C57A A60C C93A", "≤", -4.2],
  ["C76U U144A", "=", -1.08],
  ["A21C A91G C96U", "=", -3.34],
  ["G59C G83A C103U A122G", "=", -0.809],
  ["A12G C96U", "=", -0.793],
  ["C10G C95U", "=", -3.16],
  ["C54G G59A C76A C85G A121C C123A U127G G140C G143U A150C", "≤", -4.2],
  ["A16U C32G G34A C85G U90G A97G U134G G141C", "≤", -4.2],
  ["G46U G62A C76A C87U G88A C118U U134A", "≤", -4.2],
  ["A16U G94A", "=", -2.47],
  ["C27U C93U", "=", -3.3],
  ["C10G A37U U55A G94A C95G G140C", "≤", -4.2],
  ["A30G G86A", "=", -3.45],
  ["A24U G42C G50U C85G G136A G141A", "≤", -4.2],
  ["U15G U44G A73C G74U G80C C93U G141C", "≤", -4.2],
  ["U15G A22G U56G C96U A121U", "=", -0.722],
  ["G94C A97U G136U", "=", -3.38],
  ["U135C", "=", -1.38],
  ["G25A C72U G80U C93A C114U", "≤", -4.2],
  ["C10G G11C A12G G70U C85G U101C G128A", "≤", -4.2],
  ["A3C U4G A16G U33G C43U G92U A106G", "≤", -4.2],
  ["A52G C125U C131U G143U U146G", "≤", -4.2],
  ["A29G G50A A52C U101G G133C", "≤", -4.2],
  ["A16U G65A C69A A91U C93A G100C U101G C123G", "≤", -4.2],
  ["A3U U15G A19C A39C U44G U55A C57U A60G C63A G84A A110U A120C", "≤", -4.2],
  ["A23G U56A A97G A115G", "=", -3.42],
  ["C54G G59C G83U C87U G94A U102C U148G", "≤", -4.2],
  ["C76U G86A", "=", -0.246],
  ["U61A A98U U134G G140U U145A", "≤", -4.2],
  ["U55A A115U U127G U135A U145A", "=", -1.32],
  ["A19G G58C G59C", "=", 0.18],
  ["A24C G50C U56A C93U G94C U148C", "≤", -4.2],
  ["C5G C32A C57U C99U", "≤", -4.2],
  ["A19G A23U A30C G48U U56C A60U C87U", "≤", -4.2],
  ["G88U C95U A121U A122G G124A", "≤", -4.2],
  ["U56A U130A", "=", -2.03],
  ["A60C C76U G80C G117U C123A", "≤", -4.2],
  ["U56G G59A", "=", -1.14],
  ["G58A A89G G94A", "=", -1.91]
]}
